target: AChE (Homo sapiens); construct: purchased Sigma; assay: synergistic effect of combined active components (FIC) by AChE assay method; type: biochemical; settings: first compound diluted, added compounds fixed at IC30; unit not in table; read-out: IC Value (Standard Deviation) IC80
The following compounds are listed with their measured IC80 values.
Entry rule: numbers only, all in µg/mL.

smilesEntry | resultNumber
COc1cc2c(cc1O)-c1cc3ccc(OC)c(OC)c3c[n+]1CC2 | 4.8
COc1cc2c(cc1O)CC[n+]1cc3c(OC)c(OC)ccc3cc1-2 | 31.4
COc1ccc2cc3[n+](cc2c1OC)CCc1cc2c(cc1-3)OCO2 | 24.1

Attention now turns to another entry.
The measured IC80 associated with "COc1cc2c(cc1OC)-c1cc3ccc(OC)c(OC)c3c[n+]1CC2" reads 22.8

====

biological target: AChE (Homo sapiens, UniProt P22303); construct: purchased Sigma; assay: synergistic effect of combined active components (FIC) by AChE assay method; type: biochemical; settings: first compound diluted, added compounds fixed at IC30; unit not in table; read-out: IC Value (Standard Deviation) IC20
Sequence (P22303 32-614): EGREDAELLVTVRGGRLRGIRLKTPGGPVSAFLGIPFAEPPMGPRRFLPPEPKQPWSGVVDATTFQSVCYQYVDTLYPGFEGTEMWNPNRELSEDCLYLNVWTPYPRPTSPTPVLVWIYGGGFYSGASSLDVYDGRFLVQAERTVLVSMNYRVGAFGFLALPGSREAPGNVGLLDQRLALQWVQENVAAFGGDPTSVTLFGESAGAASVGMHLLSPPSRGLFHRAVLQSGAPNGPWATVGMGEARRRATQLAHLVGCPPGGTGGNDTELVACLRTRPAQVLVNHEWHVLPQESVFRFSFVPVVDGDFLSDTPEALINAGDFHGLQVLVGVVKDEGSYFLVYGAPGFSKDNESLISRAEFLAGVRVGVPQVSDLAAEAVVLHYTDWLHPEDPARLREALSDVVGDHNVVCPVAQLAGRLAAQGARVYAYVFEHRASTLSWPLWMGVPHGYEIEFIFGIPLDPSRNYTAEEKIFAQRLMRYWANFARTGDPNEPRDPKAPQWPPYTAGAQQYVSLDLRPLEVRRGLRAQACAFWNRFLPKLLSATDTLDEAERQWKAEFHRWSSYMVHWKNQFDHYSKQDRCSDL
The following compounds are listed with their measured IC20 values.
Express the reported value numerically, then name its unit.

These solved cases illustrate the format of a correct answer.
compound | IC20
COc1ccc2cc3[n+](cc2c1OC)CCc1cc2c(cc1-3)OCO2 [Ber, berberine] | 0.26 µg/mL
COc1cc2c(cc1O)-c1cc3ccc(OC)c(OC)c3c[n+]1CC2 [Col, columbamine] | 0.18 µg/mL
COc1cc2c(cc1OC)-c1cc3ccc(OC)c(OC)c3c[n+]1CC2 [Pal, palmatine] | 0.1 µg/mL

Attention now turns to another entry.
The measured IC20 associated with COc1cc2c(cc1O)CC[n+]1cc3c(OC)c(OC)ccc3cc1-2 [Jat, jatrorrhizine] reads 0.39 µg/mL

====

The following compounds are listed with their measured IC50 values.
target: AChE (Homo sapiens); construct: purchased Sigma; assay: biochemical; details: mean ± standard deviation, repeated three times; 10 min at 37 °C, absorbance at 405 nm
Entry rule: numbers only, all in µM.

These solved cases illustrate the format of a correct answer.
compound | IC50 (µM)
COc1cc2c(cc1OC)-c1cc3ccc(OC)c(OC)c3c[n+]1CC2 [Pal, palmatine] | 4.31
COc1cc2c(cc1O)CC[n+]1cc3c(OC)c(OC)ccc3cc1-2 [Jat, jatrorrhizine] | 10.3

The measured IC50 associated with COc1cc2c(cc1O)-c1cc3ccc(OC)c(OC)c3c[n+]1CC2 [Col, columbamine] reads 2.75

====

The following compounds are listed with their measured IC90 values.
target: AChE (Homo sapiens, UniProt P22303); construct: purchased Sigma; test: synergistic effect of combined active components (FIC) by AChE assay method; format: biochemical; settings: first compound diluted, added compounds fixed at IC30; unit not in table; read-out: IC Value (Standard Deviation) IC90
Entry rule: numbers only, all in µg/mL.

These solved cases illustrate the format of a correct answer.
smilesEntry | readoutUnit | IC90
COc1cc2c(cc1O)CC[n+]1cc3c(OC)c(OC)ccc3cc1-2 | µg/mL | 63.2
COc1cc2c(cc1OC)-c1cc3ccc(OC)c(OC)c3c[n+]1CC2 | µg/mL | 48.3
COc1ccc2cc3[n+](cc2c1OC)CCc1cc2c(cc1-3)OCO2 | µg/mL | 50.2

Attention now turns to another entry.
The measured IC90 associated with "COc1cc2c(cc1O)-c1cc3ccc(OC)c(OC)c3c[n+]1CC2" reads 12.5

Origin of the recorded values: patent EP3954371B1
